Just for reference, patent US20250276075A1 is where these values come from.

- study target: Axl (UniProt P30530)
- Sequence (P30530 26-451 limits assumed): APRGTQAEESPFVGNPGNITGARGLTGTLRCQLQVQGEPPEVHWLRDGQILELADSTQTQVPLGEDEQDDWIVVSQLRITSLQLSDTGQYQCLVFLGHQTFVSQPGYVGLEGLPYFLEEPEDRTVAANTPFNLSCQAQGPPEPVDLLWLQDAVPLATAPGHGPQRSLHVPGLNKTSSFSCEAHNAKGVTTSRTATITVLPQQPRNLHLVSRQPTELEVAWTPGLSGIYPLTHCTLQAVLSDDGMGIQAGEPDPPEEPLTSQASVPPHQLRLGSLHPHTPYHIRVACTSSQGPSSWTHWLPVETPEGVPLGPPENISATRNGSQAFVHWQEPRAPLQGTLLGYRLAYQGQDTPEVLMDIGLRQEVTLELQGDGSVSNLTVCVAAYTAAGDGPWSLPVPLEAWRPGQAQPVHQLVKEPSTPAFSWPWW
- protocol text: ELISA, 1:3 dilution
# key: entry, value: Affinity ELISA CPE mutant ratio (1:3, pH 6.0/7.4)

Look over these answered cases.
| binder | experimental result |
| --- | --- |
| LC-F092S (antibody, V domains shown) VH: EVQLVQSGAEVKKPGATVKISCKVSGYSFTGHTMNWIRQPPGKGLEWIGLIKPSNGGTSYNQKFKGRVTISADKSISTAYLQWSSLKASDTAMYYCAHGHYESYFAMDYWGQGTLVTVSS VL: DIQMTQSPSSLSASVGDRVTITCKASQDVSSAVAWYQQKPGQAPRLLIYWASTRHTGVPSRFSGSGSGTEFTLTISSLQPDDFATYYCQEHSSTPLTFGQGTKVEIK | 3.18 |
| LC-V029W (antibody, V domains shown) VH: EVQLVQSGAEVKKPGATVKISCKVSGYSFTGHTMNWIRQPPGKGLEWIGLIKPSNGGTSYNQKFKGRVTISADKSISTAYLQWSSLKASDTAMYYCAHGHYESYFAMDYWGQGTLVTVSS VL: DIQMTQSPSSLSASVGDRVTITCKASQDWSSAVAWYQQKPGQAPRLLIYWASTRHTGVPSRFSGSGSGTEFTLTISSLQPDDFATYYCQEHFSTPLTFGQGTKVEIK | 2.31 |
| LC-P095H (antibody, V domains shown) VH: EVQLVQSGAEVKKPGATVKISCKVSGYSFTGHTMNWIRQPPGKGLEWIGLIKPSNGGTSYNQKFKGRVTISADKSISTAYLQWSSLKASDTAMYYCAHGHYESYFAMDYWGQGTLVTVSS VL: DIQMTQSPSSLSASVGDRVTITCKASQDVSSAVAWYQQKPGQAPRLLIYWASTRHTGVPSRFSGSGSGTEFTLTISSLQPDDFATYYCQEHFSTHLTFGQGTKVEIK | 2.5 |
| HC-Y104C (antibody, V domains shown) VH: EVQLVQSGAEVKKPGATVKISCKVSGYSFTGHTMNWIRQPPGKGLEWIGLIKPSNGGTSYNQKFKGRVTISADKSISTAYLQWSSLKASDTAMYYCAHGHYESCFAMDYWGQGTLVTVSS VL: DIQMTQSPSSLSASVGDRVTITCKASQDVSSAVAWYQQKPGQAPRLLIYWASTRHTGVPSRFSGSGSGTEFTLTISSLQPDDFATYYCQEHFSTPLTFGQGTKVEIK | 1.84 |

Attention now shifts to the item below.
Incoming: Consider the binder HC-A106Y (antibody, V domains shown) VH: EVQLVQSGAEVKKPGATVKISCKVSGYSFTGHTMNWIRQPPGKGLEWIGLIKPSNGGTSYNQKFKGRVTISADKSISTAYLQWSSLKASDTAMYYCAHGHYESYFYMDYWGQGTLVTVSS VL: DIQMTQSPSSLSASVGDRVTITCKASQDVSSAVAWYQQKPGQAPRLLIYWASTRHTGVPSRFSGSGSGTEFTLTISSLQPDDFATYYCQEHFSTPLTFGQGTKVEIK and give its measured Affinity ELISA CPE mutant ratio (1:3, pH 6.0/7.4).
Outgoing: 3.29
